# system: Follistatin (Homo sapiens) (UniProt P19883)
# Sequence (P19883 whole entry, looked up): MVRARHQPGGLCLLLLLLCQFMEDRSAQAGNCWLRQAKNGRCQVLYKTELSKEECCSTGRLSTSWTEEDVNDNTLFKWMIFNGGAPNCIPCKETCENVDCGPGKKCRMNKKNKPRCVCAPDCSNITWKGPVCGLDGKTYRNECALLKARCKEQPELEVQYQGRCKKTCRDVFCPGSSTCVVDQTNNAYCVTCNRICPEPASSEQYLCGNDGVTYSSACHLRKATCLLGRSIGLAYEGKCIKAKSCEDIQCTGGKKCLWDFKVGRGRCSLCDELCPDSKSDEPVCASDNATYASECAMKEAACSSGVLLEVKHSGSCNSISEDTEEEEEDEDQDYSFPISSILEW
# experiment-notes: follistatin binders on small-molecule microarrays, primary screen, biochemical, small-molecule microarray, 635/667 nm fluorescence (AID 1132)
# stated-conditions: FST binding, 635 nm fluorescence, higher = more signal
// reported composite z-score for each item listed
Number only, please.

>>> reported_value("CN(C)CCCCCCNC(=O)[C@H]1C[C@H]2C(=O)N3CCC[C@H]3C(=O)N2[C@H]1c1ccc(O)cc1")
1.34

Here's the next entry for you.
*Q* Query (compound): COc1ccc(C(=O)Nc2ccc(CN3C(=O)[C@]4(O[C@H](CCO)[C@@H]([Si](C)(C)c5ccc(OC)cc5)[C@@H]4C)c4ccccc43)cc2)cc1 ; field requested: composite z-score
*A* 0.995

----------
// reported composite z-score for each item listed
# experiment-notes: binders of probe aFGF10 on microarray, primary screen, stem cell growth factor project, biochemical, small-molecule microarray, fluorescence 635/667 (AID 1071);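 note: score merges 667 nm spot intensity and signal to noise from triplicate slides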
# stated-conditions: higher = more signal
Number only, please.

>>> reported_value("COc1ccccc1CN1C(=O)c2ccccc2[C@@]2(Cc3ccccc3N(CC(C)C)C2=O)[C@@H]1c1ccc(CO)cc1")
0.134

*Q* Query (compound): CCCCCN1CC=CC23O[C@@H]4/C=C\CCC(C)OC(=O)C4[C@H]2C(=O)N(C(C)CO)[C@@H]3C1=O (stereo partly drawn) ; field requested: composite z-score
*A* -0.043

*Q* Query (compound): CCC(CC)C(O)C1C=CC2C(=O)NC(=O)C2N1Nc1ccccn1 (stereo not drawn) ; field requested: composite z-score
*A* 0.368

----------
# system: Homeobox protein Hox-A13 (Mus musculus) (UniProt Q62424)
# Sequence (Q62424 whole entry, looked up): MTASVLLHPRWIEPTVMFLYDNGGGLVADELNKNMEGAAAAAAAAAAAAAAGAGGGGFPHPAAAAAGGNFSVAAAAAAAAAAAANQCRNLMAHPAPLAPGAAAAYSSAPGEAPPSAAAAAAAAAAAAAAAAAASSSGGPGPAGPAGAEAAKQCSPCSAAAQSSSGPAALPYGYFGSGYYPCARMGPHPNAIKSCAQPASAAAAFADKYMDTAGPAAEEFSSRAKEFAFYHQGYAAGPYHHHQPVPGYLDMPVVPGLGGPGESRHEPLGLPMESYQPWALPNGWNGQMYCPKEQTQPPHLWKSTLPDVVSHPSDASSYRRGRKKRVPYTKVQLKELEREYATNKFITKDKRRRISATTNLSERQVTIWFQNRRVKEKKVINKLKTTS
# experiment-notes: inhibitors of HoxA13-DNA binding, primary screen, biochemical, fluorescence polarization, labeled oligonucleotide (AID 1185)
# stated-conditions: 15 min, higher = more signal, called active from +8 up or from −8 down
Activity calls are given as the source filed them.
// reported z-score for each item listed

Some solved entries appear below for comparison.
>>> reported_value("CCOC(=O)C[C@H]1[C@H](OC(=O)c2ccc(C(=O)c3ccccc3)cc2)[C@@H](NC(=O)c2ccccc2)c2cc(OCCCO)ccc2N1C(=O)c1ccc2ccccc2n1")
"-3.02 (inactive)"
>>> reported_value("CCCCCCc1nc(-c2ccc(OC)nc2)cc2c1[Si](C(C)C)(C(C)C)O[C@H]2c1ccccc1")
"-2.62 (inactive)"
>>> reported_value("C=C[C@H](OC)[C@@H](OC(=O)Nc1ccc(OC)cc1)c1ccc(O)c(F)c1")
"-3.1 (inactive)"
>>> reported_value("CC(C)C(O)C1C=CC2C(=O)NC(=O)C2N1Nc1ccc(Cl)cc1Cl (stereo not given)")
"-3.95 (inactive)"
>>> reported_value("COC(=O)[C@H](Cc1ccccc1)N[C@@H](/C=C/C1CC1)[C@H](O)Cc1ccccc1")
"-5.71 (inactive)"
>>> reported_value("Cc1ccc(S[C@]2(C(=O)NCCCN(C)C)CC(=O)N(Cc3cc(C(F)(F)F)cc(C(F)(F)F)c3)[C@@H]2c2ccc(CO)cc2)cc1")
"-2.68 (inactive)"

*Q* Query (compound): COC(=O)[C@@]1(Cc2ccccc2)[C@H]2c3cc(C(=O)N(C)C)n(Cc4ccsc4Br)c3C[C@H]2CN1C(=O)c1ccccc1 ; field requested: z-score
*A* -4.23 (inactive)

----------
# experiment-notes: anti-His antibody binders, primary screen, artefact control for SMM control protein annotation, biochemical, small-molecule microarray, 635 nm fluorescence (AID 1128);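 note: score merges feature fluorescence with signal-to-noise for each printed compound spot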
# stated-conditions: anti-His Alexa647 antibody binding, higher = more signal
parameter: composite z-score
Number only, please.

>>> reported_value("COc1cccc(-c2cccc(=O)o2)c1")
0.0707
>>> reported_value("CCC(CC)C(O)C1C=CC2C(=O)NC(=O)C2N1Nc1ccc(Cl)cc1Cl (configuration not stated)")
1.66
>>> reported_value("CCC[C@@H]1C[C@@]1(CCC)[C@@H](NC(=O)c1ccccc1)c1cccc(Cl)c1")
1.52
>>> reported_value("COC(=O)[C@@]1(Cc2ccccc2)[C@H]2c3cc(C(=O)N(C)C)n(Cc4ccsc4Br)c3C[C@H]2CN1C(=O)c1ccccc1")
1.18
>>> reported_value("C=C(COC)/C(=C/C[C@@H](OC(=O)c1ccncc1)c1ccc(CO)o1)c1cc(C(=O)OC)ccc1OC")
0.68
>>> reported_value("O=C1C[C@@](C(=O)NC2CC2)(c2ccc([N+](=O)[O-])cc2)[C@@H](c2ccc(CO)cc2I)N1C1CCCCC1")
0.342
>>> reported_value("CC(C)N1C(=O)c2ccccc2[C@](C)(C(=O)NCCN2CCOCC2)[C@@H]1c1ccc(CO)cc1")
-0.293
>>> reported_value("CC(C)c1ccc(NN2C(C(O)c3ccc(B(O)O)cc3)C=CC3C(=O)N(c4ccccc4)C(=O)C32)cc1 (configuration not stated)")
1.24
>>> reported_value("O=C1[C@@]23C=C(Br)[C@H](C[C@@H]2CCOC3)[C@@]12CO2")
0.477
>>> reported_value("O=C1C2C=CC(C(O)c3cc(C(F)(F)F)cc(C(F)(F)F)c3)N(n3cnnc3)C2C(=O)N1Cc1ccccc1 (configuration not stated)")
0.955

*Q* Query (compound): O=C(CS)NCCCCCCNC(=O)[C@@H]1C[C@@H]2C(=O)NCC(=O)N2[C@@H]1c1cccc(OCCO)c1 ; field requested: composite z-score
*A* 3.13

*Q* Query (compound): CCCc1cc2c(n1Cc1cc(F)cc(F)c1)C(C)C1CN(C(=O)c3ccccc3)C(C)(C(=O)OC)C21 (configuration not stated) ; field requested: composite z-score
*A* 2.15

----------
// reported z-score for each item listed
# experiment-notes: FRG1 promoter luciferase signal modulators, primary screen, FRG1 inhibition for FSHD, cell-based, C2C12 myotubes, firefly/Renilla luciferase, luminescence (AID 1084)
# stated-conditions: higher = more signal, called active from +8 up or from −8 down
The source made the active and inactive calls.

Some solved entries appear below for comparison.
>>> reported_value("CN(C)C(=O)[C@]1(Cc2ccccc2N=[N+]=[N-])N=C(c2ccc(OCCCO)cc2)O[C@@H]1c1ccccc1N=[N+]=[N-]")
"-1.74 (inactive)"
>>> reported_value("C[N+](C)(C)CCCCNC(=O)[C@@H]1C[C@@H]2C(=O)N[C@@H](Cc3ccccc3)C(=O)N2[C@@H]1c1cccc(OCCO)c1")
"1.51 (inactive)"
>>> reported_value("C=C(CC1([C@@H](NP(=O)(c2ccccc2)c2ccccc2)[C@H]2C[C@@H]2CCCC)CC1)c1ccccc1")
"2.47 (inactive)"
>>> reported_value("CC(C)OC(=O)C=C1C[C@@H](c2ccccn2)O[C@@H](c2ccccn2)O1")
"0.805 (inactive)"

*Q* Query (compound): COCCOC(=O)N1C(=O)[C@@]2(c3cc(C#CCC(C(=O)OC)C(=O)OC)ccc31)[C@H](c1ccccc1OCCO)N1[C@H](c3ccccc3)[C@H](c3ccccc3)OC(=O)[C@H]1[C@@H]2C(=O)N1CCN(c2ncccn2)CC1 ; field requested: z-score
*A* -0.796 (inactive)

*Q* Query (compound): C#C[C@H](O[Si](C#Cc1ccc(Oc2ccccc2)cc1)(C(C)C)C(C)C)c1ccccc1 ; field requested: z-score
*A* 0.297 (inactive)

----------
# experiment-notes: small-molecule microarray binders of probe aWnt5a, primary screen, biochemical, biotinylated probe, 635/667 nm fluorescence (AID 1113);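 note: score merges 667 nm fluorescence intensity with signal-to-noise per printed feature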
# stated-conditions: higher = more signal
parameter: composite z-score
Number only, please.

>>> reported_value("C=C[C@@H](COC(=O)OC(C)(C)C)N(Cc1ccc(OC)cc1)S(=O)(=O)c1ccc(Br)cc1")
-0.0977
>>> reported_value("COC(=O)[C@@]1(Cc2ccc(OC)cc2)[C@H]2c3cc(C(=O)N(C)C)n(CCc4ccccn4)c3C[C@H]2CN1C(=O)c1ccccc1")
0.675
>>> reported_value("COc1cc2c(cc1OC)CN(C(=O)[C@@H]1[C@H]3C(=O)O[C@H](c4ccccc4)[C@H](c4ccccc4)N3[C@H](c3ccc(O)cc3)[C@@]13C(=O)Nc1ccccc13)CC2")
-0.154
>>> reported_value("O=C(NCCN1CCOCC1)C1N=C(c2ccc(OCCCO)cc2)N(c2ccccc2)O1 (configuration not stated)")
0.139
>>> reported_value("COc1cc(COC(C)=O)ccc1OC(C)=O")
0.731

*Q* Query (compound): C=C(C)[C@@H]1CC=C(C(O)C2C=CC3C(=O)N(c4ccccc4)C(=O)C3N2Nc2ccccc2)CC1 (some centres not stated) ; field requested: composite z-score
*A* 0.212

*Q* Query (compound): Cc1ccc(S[C@]2(C(=O)NCCCN(C)C)CC(=O)N(Cc3cc(C(F)(F)F)cc(C(F)(F)F)c3)[C@@H]2c2ccc(CO)cc2)cc1 ; field requested: composite z-score
*A* -0.152

*Q* Query (compound): C=C(CCCC)/C(=C/C[C@@H](OC(C)=O)c1ccc(OCCO)cc1)c1cnc2ccccc2c1 ; field requested: composite z-score
*A* -0.0735

*Q* Query (compound): C=C(CCCC)/C(=C/C[C@H](OC(=O)c1ccncc1)c1ccccc1OCCO)c1cnc2ccccc2c1 ; field requested: composite z-score
*A* -0.096

*Q* Query (compound): COc1ccc(C#Cc2ccc3c(c2)[C@]2(C(=O)N3)[C@H](c3ccccc3OCCO)N3[C@H](c4ccccc4)[C@H](c4ccccc4)OC(=O)[C@H]3[C@@H]2C(=O)Nc2nc3ccccc3s2)cc1 ; field requested: composite z-score
*A* -0.128

*Q* Query (compound): C[C@@]1([C@@H](NC(=O)c2ccc(-c3ccccc3)cc2)c2ccc(Cl)cc2)C[C@H]1C1CCCCC1 ; field requested: composite z-score
*A* 0.0879

*Q* Query (compound): CC(C)C(O)C1C=CC2C(=O)N(c3ccccc3)C(=O)C2N1Nc1ccc([N+](=O)[O-])cc1 (configuration not stated) ; field requested: composite z-score
*A* 0.261
